Provenance of the data: patent US8703953B2

Target: GST-Xa-hAAK1 (Homo sapiens, UniProt Q2M2I8)
Construct: made in house
Sequence (Q2M2I8 whole entry): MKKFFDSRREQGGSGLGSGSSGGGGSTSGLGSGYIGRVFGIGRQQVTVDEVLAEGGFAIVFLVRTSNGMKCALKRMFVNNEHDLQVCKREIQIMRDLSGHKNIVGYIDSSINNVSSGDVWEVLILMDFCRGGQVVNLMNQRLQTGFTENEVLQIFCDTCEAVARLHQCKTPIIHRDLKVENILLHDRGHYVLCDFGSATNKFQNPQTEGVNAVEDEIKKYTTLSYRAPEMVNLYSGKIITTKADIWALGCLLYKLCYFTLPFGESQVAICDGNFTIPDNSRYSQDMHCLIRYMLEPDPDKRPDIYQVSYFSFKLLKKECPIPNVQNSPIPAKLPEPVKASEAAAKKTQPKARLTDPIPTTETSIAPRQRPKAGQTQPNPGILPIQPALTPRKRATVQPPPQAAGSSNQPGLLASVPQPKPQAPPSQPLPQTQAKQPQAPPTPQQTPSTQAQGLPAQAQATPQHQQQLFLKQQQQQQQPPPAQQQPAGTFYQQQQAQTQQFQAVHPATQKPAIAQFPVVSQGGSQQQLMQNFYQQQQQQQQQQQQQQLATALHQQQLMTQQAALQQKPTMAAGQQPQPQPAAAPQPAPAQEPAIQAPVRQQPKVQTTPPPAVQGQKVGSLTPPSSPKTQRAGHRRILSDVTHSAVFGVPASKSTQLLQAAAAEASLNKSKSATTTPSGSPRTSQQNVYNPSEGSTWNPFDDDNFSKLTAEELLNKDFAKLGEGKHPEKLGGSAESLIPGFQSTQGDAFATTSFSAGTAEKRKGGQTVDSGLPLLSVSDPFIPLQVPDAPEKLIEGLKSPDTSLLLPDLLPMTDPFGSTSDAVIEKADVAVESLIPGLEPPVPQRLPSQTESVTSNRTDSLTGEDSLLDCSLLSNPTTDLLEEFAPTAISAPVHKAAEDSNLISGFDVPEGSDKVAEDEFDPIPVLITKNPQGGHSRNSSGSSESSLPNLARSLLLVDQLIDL
Assay: AAK1 Kinase Assay (Caliper LabChip, fluoresceinated peptide substrate)
Format: biochemical
Conditions: ATP 22 μM; listed as IC50 ranges
pIC50: −log10 of the molar value.
# key: entry, value: pIC50
value-kind: pIC50

>>> result("CC(=O)Nc1cc2c(cn1)COc1cc(OC[C@@H](N)CC(C)C)ccc1-2 [Example 18]")
"8.00 to 9.00"
>>> result("CC(C)C[C@@H](N)COc1ccc2c(c1)OC(C)c1cnccc1-2 (single isomer, unassigned) [Example 7b]")
"7.00 to 8.00"
>>> result("COC(=O)Nc1cc2c(cn1)COc1cc(OC[C@@H](N)CC(C)C)ccc1-2 [Example 43]")
"8.00 to 9.00"
>>> result("CC(C)C[C@@H](N)COc1ccc2c(c1)OC(C1CC1)c1cnccc1-2 (single isomer, unassigned) [Example 9a]")
"6.00 to 7.00"
>>> result("CC(C)C[C@H](N)COc1cc2c(cc1C#N)-c1ccncc1CO2 [Example 23]")
"8.00 to 9.00"
>>> result("CCC1Oc2cc(OC[C@@H](N)CC(C)C)ccc2-c2ccncc21 (single isomer, unassigned) [Example 10a]")
"7.00 to 8.00"
>>> result("CC(=O)Nc1cc2c(cn1)COc1cc(OCC(C)(N)CC(C)C)ccc1-2 (racemic) [Example 44]")
"8.00 to 9.00"
>>> result("CC(C)C[C@H](N)COc1cc2c(cc1I)-c1ccncc1C(C)O2 (single isomer, unassigned) [Example 31a]")
"8.00 to 9.00"
>>> result("CC(=O)Nc1cc2c(cn1)COc1cc(OC[C@H](N)CC(C)C)ccc1-2 [Example 40]")
"8.00 to 9.00"
>>> result("CC(C)C[C@H](N)COc1ccc2c(c1)OC(C1CC1)c1cnccc1-2 (single isomer, unassigned) [Example 8b]")
"7.00 to 8.00"
>>> result("CC(C)C[C@H](N)COc1ccc2c(c1)OCc1cnc(N)cc1-2 [Example 33]")
"7.00 to 8.00"
>>> result("CC(C)C[C@H](N)COc1ccc2c(c1)OCc1c-2ccnc1N [Example 13]")
"8.00 to 9.00"
>>> result("CC(=O)Nc1cc2c(cn1)COc1c-2ccc(OC[C@@H](N)CC(C)C)c1C [Example 35]")
"> 9.00"

---

Target: GST-Xa-hAAK1 (Homo sapiens, UniProt Q2M2I8)
Construct: made in house
Assay: AAK1 Kinase Assay (Caliper LabChip, fluoresceinated peptide substrate)
Format: biochemical
Details: ATP 22 μM; numeric values
pIC50: −log10 of the molar value.
Item-by-item account of pIC50
value-kind: pIC50

>>> quantitative_result("CC(=O)Nc1cc2c(cn1)COc1c-2ccc(OC[C@@H](N)CC(C)C)c1F")
9.52
>>> quantitative_result("CC(C)C[C@H](N)COc1ccc2c(c1)oc(=O)c1cnccc12")
7.66
>>> quantitative_result("CC(C)C[C@@H](N)COc1ccc2c(c1)OC(C)c1cnccc1-2 (single isomer, unassigned)")
7.09
>>> quantitative_result("CC(=O)Nc1cc2c(cn1)COc1cc(OC[C@@H](N)CC(C)C)c(Cl)cc1-2")
7.18
>>> quantitative_result("CC(C)C[C@H](N)COc1ccc2c(c1)OC(C)c1cnccc1-2 (single isomer, unassigned) [Example 6a]")
7.57
>>> quantitative_result("CC(C)C[C@H](N)COc1ccc2c(c1)OCc1cnccc1-2")
8.48
>>> quantitative_result("CC(C)C[C@H](N)COc1ccc2c(c1)OC(C)c1cnccc1-2 (single isomer, unassigned) [Example 6b]")
8.04
>>> quantitative_result("CC(C)C[C@H](N)COc1ccc2c(c1)OCc1cnc(NC(=O)C3CC3)cc1-2")
9.30
>>> quantitative_result("CC(C)C[C@@H](N)COc1ccc2c(c1)OCc1cnccc1-2")
7.70
